pKi: −log10 of the molar value.
# merged literature set: pKi with HPK1 (Homo sapiens (Human), UniProt Q92918)

Please review the entries below; each comes with its answer.
In [3]: df
Out[3]:
                                   molecule  quantityname  observedmeasurement
0  COc1cccc(C(N)=O)c1-c1nccc(C(=O)Nc2ccc3sc(C)nc3c2N2C[C@H](N)C[C@H]2CO)n1           pKi         6.30 to 7.00
1  COc1cccc(F)c1-c1cc2c(NC(=O)c3ccc(N4CCN(S(C)(=O)=O)CC4)cc3)n[nH]c2cn1           pKi               ≥ 7.00
2  CNCc1cc(F)c(-c2ncc3[nH]nc(-c4cnc(N5CCOCC5)c(C#N)c4)c3n2)c(F)c1           pKi               ≥ 7.00
3  CNCc1cc(F)c(-c2cc3c(-c4cnn(CCO)c4)n[nH]c3cn2)c(F)c1           pKi               ≥ 7.00
4  CCN1CCN(c2cccc(C(=O)Nc3n[nH]c4cnc(-c5c(F)cccc5OC)cc34)c2)CC1           pKi               ≥ 7.00
5  CCNCc1ccc(F)c(-c2cc3c(-c4cnn(C)c4)n[nH]c3cn2)c1C           pKi               ≥ 7.00

Bench note, HPK1 (Homo sapiens (Human), UniProt Q92918): COc1cccc(F)c1-c1cc2c(NC(=O)c3cccc(Br)c3)n[nH]c2cn1 , pKi reads ≥ 7.00

The molecule Cc1cccc(F)c1-c1cc2c(NC(=O)c3ccc(N4CCN(C)CC4)cc3N)n[nH]c2cn1 , when measured on HPK1 (Homo sapiens (Human), UniProt Q92918), yielded pKi of ≥ 7.00

Case Cc1nc2c(N3CC[C@@H](N)C3)c(NC(=O)c3ccnc(-c4c(F)cccc4F)n3)ccc2s1 , HPK1 (Homo sapiens (Human), UniProt Q92918), pKi recorded as > 7.00

So the reported pKi for CN1CCN(c2ccc(-c3n[nH]c4cnc(-c5cccc6c5CCNC6)nc34)cc2)CC1 , on HPK1 (Homo sapiens (Human), UniProt Q92918), turned out to be ≥ 7.00

Reported HPK1 (Homo sapiens (Human), UniProt Q92918) pKi for item CNCc1cc(F)c(-c2cc3c(-c4ccc(N5CCN(C)CC5)nc4)n[nH]c3cn2)c(C(F)(F)F)c1 was ≥ 7.00

Fill in: HPK1 (Homo sapiens (Human), UniProt Q92918) pKi for Cc1cc(CNCc2cn(C)cn2)cc(F)c1-c1cc2c(-c3cnn(C)c3)n[nH]c2cn1 = ≥ 7.00

Field pKi (system: HPK1 (Homo sapiens (Human), UniProt Q92918)) for entry COCCn1cc(-c2cnc3c(c2Cl)C2(CC=CC2)CN3)cn1 = 6.40
